Reported melting point values for the following compounds.

Would you please look over these solved cases?
COc1nc2ccccc2cc1NC(=O)N1CCN(c2cc(F)cc(F)c2)CC1	158 to 159 °C
CC(C)CCNc1nc2ccccc2cc1[N+](=O)[O-]	99 to 100 °C
N=C(N)NCCc1ccc(OCCC(c2ccc(Cl)cc2)(c2ccc(Cl)cc2)c2ccc(Cl)cc2)cc1	146 to 150 °C
CCn1cc(C(=O)O)c(=O)c2cc(F)c(-c3ccnc(CN)n3)c(F)c21	285 to 289 °C
Cc1nc(-n2cccc(C(F)(F)F)c2=O)sc1C(=O)NCc1ccccc1	203 to 204 °C
COc1cc(OC)c2c(=O)c(OCCCOc3ccc(C(C)=C4SC(=O)NC4=O)cc3)c(-c3ccc(OC)c(OC)c3)oc2c1	198 to 200 °C

I am curious: what melting point value has been reported for Cc1cc(OCc2ccccc2F)c2cccc(O)c2n1 ?
124 to 125 °C

Please answer likewise for COc1ccc(COC(C)(C)C(=O)Nc2c(N)n(Cc3ccc(OC)c(OC4CCCC4)c3)c(=S)[nH]c2=O)cc1
172 to 184 °C

# repeat for CC(C)n1nc(-c2c(-c3ccccc3)nn3ccc(N4CCCC4=O)cc23)ccc1=O
266 to 267 °C

Let us now turn to COC(=O)c1scc(Cl)c1N
62 to 64 °C

Moving on to the next compound: CCOc1ccc(Cc2cn(C3OC(COC(C)=O)C(OC(C)=O)C(OC(C)=O)C3OC(C)=O)c3cccc(Cl)c23)cc1 (stereo not given)
166 to 169 °C

====

ATTRIBUTE MEASURED: melting point

// below: answered compounds
COC(=O)c1ccc(N2CCN(C)CC2)cc1	117 to 119 °C
Cc1cccc(-c2cccc(OC3SCC(O)C(O)C3O)c2)n1 (stereo not given)	143 °C
CC(C)(C)c1cc(NC(=O)c2csc(-c3ccc(N)cc3)n2)cc(C(C)(C)C)c1O	267 to 268 °C

GET /values?readout=melting point&item= CCCCCCCCCCCCCCCCCCN(C(=O)OC(C)(C)C)c1ccc(CCC(=O)O)cc1
46 to 48 °C

Now try Cc1nc(-c2ccc(-c3cnc4[nH]c(=O)n(CC5CCCCC5)c4n3)cc2)n[nH]1 .
315 to 318 °C

====

Reported values of melting point for individual entries

Reference set (2 entries):
CC1=C(/C=C/C(C)=C/C=C/C(C)=C\C(=O)O)C(C)(C)C(=O)CC1	178 to 179 °C
O=C(O)c1ccccc1Sc1ccc([N+](=O)[O-])cc1[N+](=O)[O-]	179 to 181 °C

Shift focus to the following entry.
Any idea what melting point was measured for O=C1NCC(c2cn3c4c(cccc24)CCC3)=C1c1c[nH]c2ccccc12 ?
260 to 262 °C

====

ATTRIBUTE MEASURED: melting point

Below, 3 compounds whose answers are already recorded.
Cn1ccc2ccc(-c3ccc(C(C)(C)C)cc3)cc21	92 to 94 °C
CCCCN1C(=O)C2=C(c3ccc(Cl)cc3)N(CCCC)C(=O)C2=C1c1ccc(Cl)cc1	176 to 177 °C
CON1CCC2(CC1)NC(=O)C(Cl)(c1cc(C)ccc1C)C2=O (centres undefined)	142 to 144 °C

Now, please, on to the next compound.
Give the measured melting point of Cc1cc(O)c(C23CC4CC(CC(C4)C2)C3)cc1-c1cccc(C=C2SC(N3CCOCC3)=NC2=O)c1 .
327 to 329 °C

src = a melting point compilation (Tetko et al.; mined from patent text by program, amines drawn as free bases though some values may be those of a salt)
